// data source = the supplement of paper PMC10307832

Recorded measurements of relative viability, one per entry
test system: NCI-H522; assay: relative viability (nuclei count vs DMSO), 5 days (fraction); higher = more cells survive; details: first compound 0.1265 µM
Form: value (number only, do not type unit).

Guide cases for relative viability, answers given:
- Clc1ccc(Nc2nnc(Cc3ccncc3)c3ccccc23)cc1 [Vatalanib] + Cc1nc(Nc2ncc(C(=O)Nc3c(C)cccc3Cl)s2)cc(N2CCN(CCO)CC2)n1 [Dasatinib] (partner 0.075 µM): 0.857
- COc1cc(N2CCC(C(N)=O)CC2)ccc1Nc1nc(N)c(Cl)c(Nc2ccccc2S(=O)(=O)C(C)C)n1 [HG-5-88-01] + O=C(c1cc(Cc2n[nH]c(=O)c3ccccc23)ccc1F)N1CCN(C(=O)C2CC2)CC1 [Olaparib] (partner 8 µM): 0.665
- C[C@@H]1CN(CC(=O)Nc2ccc3c(c2)Cc2cccc(-c4cc(=O)cc(N5CCOCC5)o4)c2S3)C[C@H](C)O1 + NC(=O)Nc1cc(-c2cccc(F)c2)sc1C(=O)N[C@H]1CCCNC1 [AZD7762] (partner 0.2 µM): 0.743
- COc1cc(N2CCC(C(N)=O)CC2)ccc1Nc1nc(N)c(Cl)c(Nc2ccccc2S(=O)(=O)C(C)C)n1 [HG-5-88-01] + O=C(CCCCCCC(=O)Nc1ccccc1)NO [Vorinostat] (partner 1 µM): 0.855

Attention now shifts to the item below.
### Prompt I'd like to know its relative viability. The molecule in question is Clc1ccc(Nc2nnc(Cc3ccncc3)c3ccccc23)cc1 [Vatalanib] + N=C(N)NC(=N)NCCc1ccccc1 [Phenformin] (partner 250 µM)
### Response 0.531
